Test system: CCRIS mutagenicity, Ames/micronucleus/aberration tests
Assay: CCRIS mutagenicity studies
Details: Test System: AMES SALMONELLA TYPHIMURIUM; Strain/Indicator: TA98; Metabolic Activation: NONE; Method: PREINCUBATION
Active and inactive are the calls of the source. No rule for the calls is given here.
Assign a class; possible classes are active, inactive

{"columns": ["compound", "label"],
 "data": [
  ["O=C(O)[C@H]1OC(Oc2ccc3cc4ccc5cccc6ccc(c3c2)c4c56)[C@H](O)[C@@H](O)[C@@H]1O (stereo not given in full)", "inactive"]
]}

In: Dear colleague, could you share the recorded outcome for Cc1cccc2cc([N+](=O)[O-])ccc12 when you have a moment?
Out: active

In: Try the compound Cc1ccc2nc3c(ccc4ccccc43)cc2c1
Out: inactive

In: Try the compound C=CC(=O)N(CC1CO1)CC1CO1 (stereo not given)
Out: active

In: Try the compound COc1cc(CNC(=O)CCCC/C=C/C(C)C)ccc1O
Out: inactive

In: Try the compound CCC(=O)N(O)c1ccc(-c2ccccc2)cc1
Out: inactive

In: Try the compound CCCCC(C=O)CC (stereo not given)
Out: inactive

In: Try the compound C=C1/C(=C\C=C2/CCC[C@]3(C)[C@@H]([C@H](C)/C=C/[C@@H](O)C4CC4)CC[C@@H]23)C[C@@H](O)C[C@@H]1O
Out: inactive

In: Try the compound Cc1nccnc1C
Out: inactive

----------
Tested on: CCRIS mutagenicity, Ames/micronucleus/aberration tests
Assay: CCRIS mutagenicity studies
Details: Test System: Ames Salmonella typhimurium; Strain/Indicator: TA100; Metabolic Activation: None; Method: Preincubation
The source made the active and inactive calls. No rule for the calls is given here. Where a SMILES comes first, the peptide text is derived from it.
Assign a class; possible classes are active, inactive

{"columns": ["compound", "label"],
 "data": [
  ["COC(C)(C)C", "inactive"],
  ["O=C1NC(=O)c2ccccc21", "inactive"],
  ["c12c3c4c5c1c1c6c7c2c2c8c3c3c9c4c4c%10c5c5c1c1c6c6c%11c7c2c2c7c8c3c3c8c9c4c4c9c%10c5c5c1c1c6c6c%11c2c2c7c3c3c8c4c4c9c5c1c1c6c2c3c41", "inactive"]
]}

In: Dear colleague, could you share the recorded outcome for COC(=O)[C@H](Cc1ccccc1)NC(=O)[C@@H](N)CC(=O)O (H-Asp-Phe-OMe) when you have a moment?
Out: inactive

In: Try the compound Nc1ccc(-c2cc([N+](=O)[O-])c(N)c(Cl)c2Cl)cc1
Out: inactive

In: Try the compound CC12C=CC(C1)C1C(=O)OC(=O)C12 (centres undefined)
Out: inactive

In: Try the compound O=C1OC(O)C(C(Cl)Cl)=C1Cl (centres undefined)
Out: active

In: Try the compound CCN(CC)c1ccc(/C=C/C2=[N+](C)c3ccccc3C2(C)C)cc1
Out: inactive

In: Try the compound CC(C)(C)c1ccc(C(=O)O)cc1
Out: inactive

In: Try the compound CCOC(=O)CC(=O)OCC
Out: inactive

In: Try the compound CC(C)=CC1C(C(=O)OC(C#N)c2cccc(Oc3ccccc3)c2)C1(C)C (centres undefined)
Out: inactive

In: Try the compound C=CC1=C(C)C(=O)N/C1=C\c1[nH]c(Cc2[nH]c(/C=C3\NC(=O)C(C)=C3C=C)c(C)c2CCC(=O)NCCS(=O)(=O)O)c(CCC(=O)NCCS(=O)(=O)O)c1C
Out: inactive

In: Try the compound C=Cc1ccccn1
Out: inactive

In: Try the compound O=C(O)C(Br)Br
Out: active

Numbers sourced from PubChem BioAssay AID1259407.
